Biological target: Estrogen receptor beta (Homo sapiens)
Experiment: displacement of fluorescent estrogen from ERbeta – cell-based, Cos7 ERbeta-GFP, flow cytometry, primary screen (AID 1210);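 also: 0% = DMSO vehicle wells and 100% = complete loss of labeled estradiol signal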
Details: fluorescent estrogen binding, at 10 µM, stronger effect = higher value
# key: entry, value: inhibition
Write the value in % as a bare number.

Previously resolved entries follow.
Item under review: CC(=O)Nc1ccc2[nH]c(C)cc(=O)c2c1 . Reported inhibition? 64

Given the entry COC(=O)c1[nH]c2ccc(C)cc2c1NC(=O)CN1CCCc2ccccc21 , report its measured inhibition. 56

Which inhibition value is on record for CC1CC(C(F)(F)C(F)(F)F)n2nc(C(=O)O)cc2N1 (configuration not stated) ? 58

Quick one: inhibition for O=c1cc(-c2ccc(O)c(O)c2)oc2c(C3O[C@H](CO)[C@@H](O)[C@H](O)[C@H]3O)c(O)cc(O)c12 (some centres not stated) ? 40

Further cases:
Return reported inhibition; argument: CCOc1ccc(NS(=O)(=O)c2ccc3c(c2)[C@H]2C=CC[C@H]2[C@@H](c2ccc([N+](=O)[O-])cc2)N3)cc1 1

Give its inhibition value. Item: O=S(=O)(NCc1csc(-c2cccnc2)n1)c1cccs1 34

Which inhibition reading was recorded for the molecule C/C=C(/C(=C/C)c1ccc(O)cc1)c1ccc(O)cc1 ? 55
